Test system: c-Abl (mouse);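 note: 11-residue human phosphosite peptides and single-mutation variants displayed on the E. coli surface, counted by deep sequencing, each peptide's frequency after selection divided by its frequency in the unselected input library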;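 note: frequency after pTyr selection over input frequency; kinase dosed for 20-30% of maximal phosphorylation in three min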
Experiment: phosphorylation enrichment, bacterial display (enrichment ratio); higher = better substrate or ligand; peptides without Tyr show the background
property-label: phosphorylation enrichment
// no unit string in output, number only

As a guide, the following entries are already answered.
| query-sequence | property-label | reading |
| --- | --- | --- |
| IRTDAYVWAMT [RPE65_Y89_R91W] | phosphorylation enrichment | 0.724 |
| LKKLEYLNLPL [LRRC6_Y70_A74P] | phosphorylation enrichment | 0.622 |
| QPAGNYSLSSV [ARFGAP3_Y473] | phosphorylation enrichment | 0.996 |

API: the following record is the query input.
Record LKSEMYQKLLK [RGS13_Y146] : what is its phosphorylation enrichment with c-Abl (mouse)?
0.733

Data provenance is the supplement of paper PMC10065799.
